targetSystem: Nonstructural protein 3 (Zika virus)
Sequence (A0A024AXB9 whole entry): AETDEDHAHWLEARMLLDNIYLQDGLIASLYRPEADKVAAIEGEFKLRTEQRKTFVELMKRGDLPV
test: Functional biochemical assay to identify treatments for viral infectious disease that targets Zika NS2B-NS3 protease. Utilizing a direct enzyme activity measurement method, reading the fluorescence intensity is used to characterize the relative potency of inhibitors as IC50.
Set-up: species or system PRVABC59
pIC50: −log10 of the molar value.
I'd be grateful if you could share measured pIC50 for these entries.

> print(dat)
                                 itemsmiles  result
1        CCn1cc(Cl)nc(N2CC[C@@H](CO)C2)c1=O  < 4.00
2  NCc1cccc(NC(=O)[C@@H](NC(=O)OCc2ccccc2)C2CCN(S(=O)(=O)[C@H]3CCOC3)CC2)c1  < 4.00
3  Cn1cncc1COc1cccc([C@H](NC(=O)OCc2ccccc2)C(=O)Nc2cccc(CN)c2)c1    4.49

Parameters: items (list). Returns: pIC50 for each item.
1. NCc1cccc(NC(=O)[C@H](NC(=O)OCc2ccccc2)c2ccc(CO)cc2)c1
2. O=C(Nc1cc(-c2cccnc2)ccn1)c1cc2n(n1)CCS2(=O)=O
3. O=C(Nc1ccc2c(c1)CNC2)c1cccc2nc(O)ccc12
4. C[C@@H](Cc1c[nH]c2ccccc12)N1CCC(c2nc3ccccc3s2)CC1
5. CNC(=O)[C@H](Nc1ccc2c(c1)C(=O)OC2)c1cc(Cl)cc2[nH]ncc12

["< 4.00", "< 4.60", 6.69, "< 4.00", "< 4.60"]

Answer for every listed entry: what is its pIC50? The entries follow.
1. Cn1ccnc1C(=O)N[C@H](C(=O)Nc1cccc(CN)c1)c1ccc(OCc2ccccc2)cc1
2. CC(C)(C)OC(=O)N1Cc2ccc(NC(=O)c3ccc4c(Br)csc4c3)cc2C1

< 4.00
< 4.60

* * *

targetSystem: Nonstructural protein 3 (Zika virus)
test: Functional biochemical assay to identify treatments for viral infectious disease that targets Zika NS2B-NS3 protease. Utilizing a direct enzyme activity measurement method, reading the fluorescence intensity is used to characterize the relative potency of inhibitors as IC50.
Design: species or system PRVABC59
endpointName: IC50

Provide IC50 values for the following items, in order.
1. CC(C)c1nn(C)cc1-c1cc(F)cc(C(=O)Nc2ccc3c(c2)CNC3)c1
2. Cn1ncc2c(C(=O)Nc3ccc4c(c3)CNC4)cc(-c3cccnc3)nc21
3. O=C(O)c1cc(F)c(F)c(F)c1NS(=O)(=O)c1ccc(Oc2ccccc2Cl)cc1
4. O=C(Nc1ccc2c(c1)CNC2)c1ccccn1
5. O=C(Nc1cc(Cl)cc(C(=O)Nc2ccccc2[C@@H]2C[C@H]2C(=O)O)c1)OCc1ccccc1
6. NCc1cc(C(F)(F)F)cc(-c2ccc3[nH]c(C(=O)O)cc3c2)n1
7. C=CC[C@H]1NCc2cc(NC(=O)c3cc(F)cc4c3CC(=O)N4)ccc21
8. Cc1c(C(=O)Nc2cc(-c3ccccc3)ccn2)cc(C2CC2)n1C

1: 0.632 µM; 2: > 25 µM; 3: 88.8 µM; 4: 57.3 µM; 5: > 99.5 µM; 6: > 99.5 µM; 7: 0.156 µM; 8: > 25 µM

* * *

targetSystem: Nonstructural protein 3 (Zika virus)
test: Functional biochemical assay to identify treatments for viral infectious disease that targets Zika NS2B-NS3 protease. Utilizing a direct enzyme activity measurement method, reading the fluorescence intensity is used to characterize the relative potency of inhibitors as IC50.
Parameters: species or system PRVABC59
pIC50: −log10 of the molar value.
endpointName: pIC50

Reference set (3 entries):
> print(dat)
                                 itemsmiles  result
1    Cc1ccc(NC(=O)c2cc(Cl)cc3[nH]ncc23)cc1N  < 4.00
2  O=Cc1ccc(N2CCC(C(=O)NCCN3CCc4ccccc43)CC2)cc1    4.60
3               O=c1c2cccn2cnn1Cc1cnc(Cl)s1  < 4.00

Below are 7 compounds. Give each one its pIC50.
1. COc1ccc2nc(C(F)(F)F)nc(N3CCN(c4ccc(N)nc4)CC3)c2c1
2. CN(C)Cc1cc(NC(=O)c2cc(Cl)cc(NC(=O)OCc3ccccc3)c2)sn1
3. Cc1c(C(=O)Nc2cc(C(N)=O)c3ccccc3n2)cc(C2CC2)n1C
4. O=C(N[C@H](C(=O)NCc1ccc(F)cc1)c1ccc(OCc2ccccc2)cc1)OCc1ccccc1
5. NCc1cccc(NC(=O)c2cc(NC(=O)OCc3ccccc3)cc3c2OC(F)(F)O3)c1
6. CNC(=O)[C@H](Nc1cc(CN)cc(-c2nn[nH]n2)c1)c1cc(Cl)cc(C2CC2)c1
7. CCn1cc(-c2ccc([C@@H](NC(=O)OCc3ccccc3)C(=O)Nc3cccc(CN)c3)cc2)cn1

< 4.00
< 4.00
< 4.00
< 4.00
< 4.00
6.23
4.01
